The origin of these recorded values is paper PMC5540273.

system: PIK3CB; conditions: concentration: 1 μM, replicates: in singlicate; n = 1;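 also: KINOMEscan kinase panel screen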
Metric name: %Inh (%)

CNc1cc(-c2ccc3c(N)n[nH]c3c2)nc(N)n1	9
CNCc1ccc2nc(NC(=O)c3ccc(C(C)(C)C)cc3)cn2c1	16
O=C(Nc1n[nH]c2nc(-c3cccs3)c(Br)cc12)C1CC1	22
COC(=O)C(Cc1ccccc1)NC(=O)NC1CCN(c2ccnc(Nc3ccc(F)cc3)n2)C1 (stereo not drawn)	0
Cc1c(Cn2c(C)c(C)n3c(=O)cc(N4CCOCC4)nc23)cccc1C(F)(F)F	99.1
COc1cccc(NC(=O)Nc2ccc(C)c(-c3ccc(C(=O)Nc4ccncc4)cc3)c2)c1	0
COc1ccc(Nc2nccc(N3CCC(NC(=O)C(C)c4ccc(Cl)cc4)CC3)n2)cc1 (stereo not drawn)	22
COc1cccc(CNC(=O)NC2CCN(c3ccnc(Nc4ccc(F)cc4)n3)C2)c1 (stereo not drawn)	0
Cc1ccc(NC(=O)Nc2ccccc2F)cc1-c1ccc(C(=O)Nc2ccncc2)cc1	0

* * *

system: p38-alpha; construct: gene MAPK14; details: concentration: 1 μM, replicates: in singlicate; n = 1
// reported %Inh for each item listed
Metric name: %Inh

COC(=O)c1cccc(NC(=O)NC2CCN(c3ccnc(Nc4ccc(F)cc4)n3)C2)c1 (centres unmarked) [GSK1379725]	0%
CN1c2ccc(-c3ccc(C(N)=O)cc3)cc2-c2[nH]ncc2S1(=O)=O	0%
CNCc1ccc2nc(NC(=O)c3ccc(C(C)(C)C)cc3)cn2c1	83%
Cc1ccccc1Cn1ccn2c(=O)cc(N3CCOCC3)nc12 [GSK2269905]	0%
CC(C)c1cc(-c2ccc3c(N)n[nH]c3c2)nc(N)n1 [GSK2250882]	9%

* * *

// reported %Inh for each item listed
system: SRPK3; conditions: concentration: 1 μM, replicates: in singlicate; n = 1
Metric name: %Inh (%)

COc1ccc(CSc2nnc(-c3ccc4ncsc4c3)o2)cc1C(F)(F)F	0
COc1cccc(NC(=O)Nc2ccc(C)c(-c3ccc(C(=O)Nc4ccncc4)cc3)c2)c1	27
Fc1ccc(-c2nn3cccc(F)c3c2-c2ccncc2)cc1	16
CCn1c(-c2ccccc2)nc2cnccc21	5
CN1c2ccc(-c3ccc(C(N)=O)cc3)cc2-c2[nH]ncc2S1(=O)=O	0
COc1cccc(C2=C(Nc3cc(Cl)c(O)c(Cl)c3)C(=O)NC2=O)c1	24
CC(=O)c1c(C)c2cnc(Nc3ccc(N4CCNCC4)cn3)nc2n(C2CCCC2)c1=O	0
Cc1c(Cn2c(C)c(C)n3c(=O)cc(N4CCOCC4)nc23)cccc1C(F)(F)F	2
O=C(Nc1n[nH]c2nc(-c3ccco3)c(Br)cc12)C1CCN(Cc2ccccc2)C1.O=C(O)[C@H](O)[C@@H](O)C(=O)O (stereo not drawn)	0
c1ccc(-c2ccnc3[nH]ccc23)cc1	0
COc1ccc2cc(-c3nc(-c4ccccc4C(C)C)[nH]c3-c3ccncc3)ccc2c1	0
Cc1ccc(NC(=O)c2ccc(Cl)cc2)cc1-c1ccc(C(=O)Nc2ccncc2)cc1	0
Cc1ccc(NC(=O)Nc2ccccc2)cc1-c1ccc(C(=O)Nc2ccncc2)cc1	0
CC(=O)c1cccc(NC(=O)NC2CCN(c3ccnc(Nc4ccc(F)cc4)n3)C2)c1 (stereo not drawn)	0
Cn1cnc2c(N)ncnc21	18
CS(=O)(=O)CCNCc1nc(-c2ccc3ncnc(Nc4ccc(OCc5ccccc5)c(Cl)c4)c3c2)cs1.Cl	0
Cc1cccc2c(-c3ccncn3)c(-c3ccc(F)cc3)nn12	14
Cc1cnc(N)c(/C=C/c2cncc(C(=O)NCCc3ccc(Cl)cc3Cl)c2)c1.Cl	0

* * *

tested on: BRSK1; settings: concentration: 1 μM, replicates: in singlicate; n = 1
Metric name: %Inh (%)

CC(=O)c1cccc(NC(=O)NC2CCN(c3ccnc(Nc4ccc(F)cc4)n3)C2)c1 (centres unmarked) [GSK1379710]	6
Cc1ccc(NC(=O)Nc2ccc(Cl)c(C(F)(F)F)c2)cc1-c1ccc(C(=O)Nc2ccncc2)cc1 [GSK1398470]	7
CNc1nc(-c2ccc3c(N)n[nH]c3c2)cc(N2C[C@@H](C(=O)Nc3ccccc3)CC[C@H]2C)n1 [GSK2298859]	0
Nc1nccc(-c2c(-c3ccc(F)cc3)ncn2C2CCN(Cc3ccccc3)CC2)n1 [SB-219980]	0
COc1ccc(Nc2nccc(N3CCC(NC(=O)C(C)c4ccc(Cl)cc4)CC3)n2)cc1 (centres unmarked) [GSK1379812]	0
CS(=O)(=O)Cc1ccc(Nc2nccc(-c3c(-c4cccc(NC(=O)C5CCCCC5)c4)nn4ncccc34)n2)cc1 [GSK350559]	0
O=C(Nc1n[nH]c2nc(-c3cccs3)c(Br)cc12)C1CCCC1 [SB-743341]	63
COc1ccc(Nc2nccc(N3CCC(NC(=O)c4cc5ccccc5s4)C3)n2)cc1 (centres unmarked) [GSK1379738]	0
COc1cccc(C2=C(Nc3cc(Cl)c(O)c(Cl)c3)C(=O)NC2=O)c1 [SB-390767]	7
COc1cccc(NC(=O)Nc2ccc(C)c(-c3ccc(C(=O)Nc4ccncc4)cc3)c2)c1 [GSK1398474]	12
Nc1cccc(-c2ccc3c(N)n[nH]c3c2)n1 [GSK2192730]	55
O=C(Nc1n[nH]c2nc(-c3ccco3)c(Br)cc12)C1CCN(Cc2ccccc2)C1.O=C(O)[C@H](O)[C@@H](O)C(=O)O (centres unmarked) [SB-742034]	18
Cc1c(Cn2c(C)c(C)n3c(=O)cc(N4CCOCC4)nc23)cccc1C(F)(F)F [GSK2328680]	0
Cc1cnc(N)c(/C=C/c2cncc(C(=O)NCCc3ccc(Cl)cc3Cl)c2)c1.Cl [GSK190937]	0
Cn1cnc2c(N)ncnc21 [SKF-97623]	24
CNCc1ccc2nc(NC(=O)c3ccc(C(C)(C)C)cc3)cn2c1	9
CN1c2ccc(-c3ccc(C(N)=O)cc3)cc2-c2[nH]ncc2S1(=O)=O	0
Cc1c(Cn2c3ccccc3n3c(=O)cc(N4CCOCC4)nc23)cccc1C(F)(F)F [GSK2306394]	0
COc1nccc(-c2c(-c3ccc(F)cc3)ncn2CCCN2CCOCC2)n1 [SB-282852]	0
O=c1cc(N2CCOCC2)nc2n(Cc3ccccc3F)ccn12 [GSK2297428]	0
CS(=O)(=O)CCNCc1nc(-c2ccc3ncnc(Nc4ccc5c(cnn5Cc5ccccc5)c4)c3c2)cs1.Cl.Cl [GW569716]	0
NS(=O)(=O)c1cccc(N/C=C2\C(=O)Nc3ccc(S(=O)(=O)Cc4c(Cl)cccc4Cl)cc32)c1 [GSK398099]	0
Cc1nccc(-c2c(-c3ccc(F)cc3)ncn2CCCN2CCOCC2)n1.Cl [SB-282975]	0
COC(=O)c1cccc(NC(=O)NC2CCN(c3ccnc(Nc4ccc(OC)cc4)n3)C2)c1 (centres unmarked) [GSK1379746]	0
c1ccc(-c2ccnc3[nH]ccc23)cc1 [SB-693578]	0
O=C(Nc1n[nH]c2cc(-c3ccsc3)ccc12)C1CC1 [SB-732932]	59
COc1ccc(CSc2nnc(-c3ccc4c(c3)CCO4)o2)cc1	0
COc1cc2ncnc(Nc3cccc(Br)c3)c2cc1OC.Cl [GI230329]	20
CC(=O)c1c(C)c2cnc(Nc3ccn(C)n3)nc2n(C2CCCC2)c1=O	0
COc1ccc(Nc2nccc(NCCNC(=O)Nc3cc(C)ccc3C)n2)cc1 [GSK1379899]	4
Cc1ccc(NC(=O)Nc2ccccc2F)cc1-c1ccc(C(=O)Nc2ccncc2)cc1 [GSK1398477]	15
O=C(Nc1n[nH]c2nc(-c3cccs3)c(Br)cc12)C1CC1 [SB-735297]	66
Nc1ncnc2occ(-c3ccc4c(c3)CCN4C(=O)Cc3cc(F)ccc3F)c12 [GSK2645446]	12
CS(=O)(=O)CCNCc1nc(-c2ccc3ncnc(Nc4ccc(OCc5ccccc5)c(Cl)c4)c3c2)cs1.Cl [GW582764]	0
Cc1ccccc1-c1cc(-c2c[nH]nc2-c2ccccn2)ccn1 [GW680061]	0

* * *

// reported %Inh for each item listed
tested on: EPHB6; conditions: concentration: 1 μM, replicates: in singlicate; n = 1
Metric name: %Inh (%)

CC(C)c1ccc(O)cc1Nc1ccnc2ccc(C(F)(F)F)cc12	0
O=c1cc(N2CCOCC2)nc2n(Cc3ccccc3F)ccn12	11
COc1ccc(Nc2nccc(-c3ccc(NC(=O)c4cc5cc(F)ccc5[nH]4)cc3)n2)cc1	6
CC(=O)c1cccc(NC(=O)NC2CCN(c3ccnc(Nc4ccc(F)cc4)n3)C2)c1 (stereo not shown)	19
Fc1ccc(-c2nc3n(c2-c2ccncc2)CCS3)cc1	7
CS(=O)(=O)CCNCc1nc(-c2ccc3ncnc(Nc4ccc5c(cnn5Cc5ccccc5)c4)c3c2)cs1.Cl.Cl	21
O=c1cc(N2CCOCC2)nc2n(Cc3cccc(Cl)c3Cl)c3ccccc3n12	33

* * *

tested on: MYLK2; settings: concentration: 1 μM, replicates: in singlicate; n = 1
Metric name: %Inh

Cn1cncc1-c1cc2c(Nc3ccc(OCc4ccccc4)cc3)ncnc2cn1	10%
COc1ccc(CSc2nnc(-c3ccc4ncsc4c3)o2)cc1C(F)(F)F	16%
CCc1ccc(-c2ccc3c(c2)-c2n[nH]cc2S(=O)(=O)N3C)cc1	0%
Nc1ncnc2occ(-c3ccc4c(c3)CCN4C(=O)Cc3cc(F)ccc3F)c12	27%
Nc1nccc(-c2c(-c3ccc(F)cc3)ncn2C2CCN(Cc3ccccc3)CC2)n1	0%
